Entries annotated with measured GI50
system: Malme-3M; test: NCI tumour cell line growth inhibition, 48 h
Active and inactive are the calls of the source. Rule as the data show it: active = GI50 up to about 1.1 µM and inactive = higher.

- COMPOUND: "O=c1c2ccccc2nc(-c2ccccc2)n1NC(=S)Nc1ccc(Cl)cc1[N+](=O)[O-]"
  GI50: "> 100 µM (inactive)"
- COMPOUND: "COC(=O)C(=O)C(C#N)c1ccc(Cl)c(Cl)c1 (stereo not given)"
  GI50: "> 100 µM (inactive)"
- COMPOUND: "O=C(NC(Cc1ccc(I)cc1)C(=O)O)c1ccc(Br)cc1 (stereo not given)"
  GI50: "80.9 µM (inactive)"
- COMPOUND: "CC1(CCCO)CCCCCC(C)(CCCO)C1=O (stereo not given)"
  GI50: "> 100 µM (inactive)"
- COMPOUND: "COc1c(O)cc2c(c1O)C(=O)C(Cc1ccc(O)cc1)CO2 (stereo not given)"
  GI50: "> 100 µM (inactive)"
- COMPOUND: "CN(CCCNC(=O)c1nn(-c2ccc(Cl)cc2Cl)c2c1ccc1ccccc12)CCCNC(=O)c1nn(-c2ccc(Cl)cc2Cl)c2c1ccc1ccccc12"
  GI50: "1.95 µM (inactive)"
- COMPOUND: "Cc1ccc(NC(=O)S(N)(c2ccc(C)cc2)[N+](=O)[O-])cc1 (stereo not given)"
  GI50: "> 100 µM (inactive)"
- COMPOUND: "CSC[C@H](NC(=O)COc1cccc2cnccc12)C(=O)NC(Cc1ccccc1)C(O)C(=O)N1CSC[C@H]1C(=O)NC(C)(C)C (stereo not given in full)"
  GI50: "> 100 µM (inactive)"
- COMPOUND: "O=C(CCCN1CC=C(n2c(=O)[nH]c3ccccc32)CC1)c1cccs1"
  GI50: "> 100 µM (inactive)"
- COMPOUND: "CCOC(=O)C(C(=O)OCC)c1cc(-c2cc3ccccc3o2)oc(=O)c1C#N"
  GI50: "22.4 µM (inactive)"
